tested on: panel of breast cancer cell lines; assay: Compound A with targeted agents and chemotherapies, 72-hour in vitro proliferation assays; format: cell-based; settings: BT-20 cell line; compound A × partner; 72-hour proliferation
Counter-ions that a name gives are not always drawn.
In plain terms, low Synergy Score, meaning strictly below 10, gives Yes, and everything else gives No.

[[record]]
compound = "Nc1ccn([C@@H]2O[C@H](CO)[C@@H](O)C2(F)F)c(=O)n1 [Gemcitabine Hydrochloride]"
assigned_label = "No"

[[record]]
compound = "O=C(c1cc(Cc2n[nH]c(=O)c3ccccc23)ccc1F)N1CCN(C(=O)C2CC2)CC1"
assigned_label = "Yes"

[[record]]
compound = "N.N.O=C([O-])C1(C(=O)[O-])CCC1.[Pt+2]"
assigned_label = "Yes"

[[record]]
compound = "CC1(C)CCC(CN2CCN(c3ccc(C(=O)NS(=O)(=O)c4ccc(NCC5CCOCC5)c([N+](=O)[O-])c4)c(Oc4cnc5[nH]ccc5c4)c3)CC2)=C(c2ccc(Cl)cc2)C1"
assigned_label = "No"

[[record]]
compound = "CC(=O)c1c(C)c2cnc(Nc3ccc(N4CCNCC4)cn3)nc2n(C2CCCC2)c1=O"
assigned_label = "Yes"

[[record]]
compound = "CC(=O)O[C@@]12CO[C@@H]1C[C@H](O)[C@@]1(C)C(=O)[C@H](O)C3=C(C)[C@@H](OC(=O)[C@H](O)[C@@H](NC(=O)OC(C)(C)C)c4ccccc4)C[C@@](O)([C@@H](OC(=O)c4ccccc4)[C@H]21)C3(C)C"
assigned_label = "No"

